The measured values listed here are drawn from PubChem BioAssay (Tox21).

Assay: qHTS assay to test for compound auto fluorescence at 460 nm (blue) in HepG2 cells (AID 720687)
Details: autofluorescence 405/460 nm, 1 h; series mostly up to 91.3 µM
Active and inactive are the calls of the source. Calls come from the whole dose curve; as a rule, active = well fitted curve in the direction sought with a large enough effect in the repeat runs; inconclusive = weak or mixed curves; inactive = flat fitted curve, though single readings scatter.
measuredParameter: outcome

Recorded outcome, per entry:
1. Cc1ccccc1C(OCCN(C)C)c1ccccc1 (configuration not stated)
inactive
2. CC1(C)[C@@H]2CC[C@@]1(C)C(=O)C2
inactive
3. CC(O)CO (configuration not stated)
inactive
4. NC(N)=O
inactive

# query: outcome of entry "O=C(O)c1[nH]n(-c2ccc(S(=O)(=O)O)cc2)c(=O)c1N=Nc1ccc(S(=O)(=O)O)cc1"
inactive

# query: outcome of entry "Cc1ccc(O)cc1"
inactive

# query: outcome of entry "C[C@]12C=CC(=O)C=C1CC[C@@H]1[C@@H]2[C@@H](O)C[C@@]2(C)[C@H]1CC[C@]2(O)C(=O)CO"
inactive

# query: outcome of entry "Cc1ccc(S(=O)(=O)NC(=O)NN2CCCCCC2)cc1"
inactive

# query: outcome of entry "COc1c2occc2cc2ccc(=O)oc12"
inactive

# query: outcome of entry "CC(C)[C@@H]1CC[C@@H](C)C[C@H]1O"
inactive

# query: outcome of entry NC(=O)NC1NC(=O)NC1=O (configuration not stated)
inactive

# query: outcome of entry "NC(=O)c1cnccn1"
inactive

# query: outcome of entry O=C(c1ccccc1)C(O)c1ccccc1 (configuration not stated)
inactive

# query: outcome of entry "CC(=O)OCC(COC(C)=O)OC(C)=O"
inactive

# query: outcome of entry "CCCCOC(=O)CC(CC(=O)OCCCC)(OC(C)=O)C(=O)OCCCC"
inactive

# query: outcome of entry "CCC1(c2ccccc2)C(=O)NCNC1=O"
inactive

# query: outcome of entry "Nc1ccc(S(=O)(=O)c2ccc(N)cc2)cc1"
inactive

====

Assay: qHTS assay to identify small molecule antagonists of the estrogen receptor alpha (ER-alpha) signaling pathway using the BG1 cell line in the presence of 0.1 nM 17-beta-estradiol - cell viability counter screen (AID 1259241); note: nearly all actives have a fitted effect of over 40% in size
Conditions: VM7Luc4E2 (BG1) viability, CellTiter-Fluor protease, 22 h, 0.1 nM estradiol agonist added; series mostly up to 92.4 µM
Inconclusive results are not listed. Activity calls are given as the source filed them. Calls follow the shape of the dose curve; as a rule, active = well fitted cell-killing curve with a large enough effect in the repeat runs; inconclusive = weak or mixed curves, or effect the other way; inactive = flat fitted curve, though single readings scatter.
measuredParameter: outcome

Recorded outcome, per entry:
1) COc1ccc2[nH]cc(CCNC(C)=O)c2c1
inactive
2) O=c1ccc2ccccc2o1
inactive
3) Nc1ccn([C@H]2CC[C@@H](CO)O2)c(=O)n1
inactive
4) NC(=O)c1ccccc1O
inactive
5) NC(N)=O
inactive
6) CCCC(CCC)C(=O)O
inactive

# query: outcome of entry CC(O)CO (stereo not drawn)
inactive

# query: outcome of entry "Cc1cc(=O)n(-c2ccccc2)n1C"
inactive

# query: outcome of entry "Cc1ccc(S(=O)(=O)NC(=O)NN2CCCCCC2)cc1"
inactive

# query: outcome of entry "CC(C)[C@@H]1CC[C@@H](C)C[C@H]1O"
inactive

# query: outcome of entry "Nc1ccc(C(=O)O)cc1"
inactive

# query: outcome of entry "N=C(N)c1ccc(OCCCCCOc2ccc(C(=N)N)cc2)cc1"
inactive

# query: outcome of entry "O=C(O)c1cccc([N+](=O)[O-])c1"
inactive

# query: outcome of entry O=C(C1CCCCC1)N1CC(=O)N2CCc3ccccc3C2C1 (stereo not drawn)
inactive

# query: outcome of entry "O=c1cc[nH]c(=S)[nH]1"
inactive

# query: outcome of entry CCOc1ccc(NC(=O)CC(C)O)cc1 (stereo not drawn)
inactive

# query: outcome of entry "NC(N)=NC(=O)c1nc(Cl)c(N)nc1N"
inactive

# query: outcome of entry "CCCN(CCC)S(=O)(=O)c1ccc(C(=O)O)cc1"
inactive

# query: outcome of entry "CC1(C)[C@@H]2CC[C@@]1(C)C(=O)C2"
inactive

# query: outcome of entry "O=S(=O)(O)NC1CCCCC1"
inactive

# query: outcome of entry "O=C(O)C(=O)O"
inactive

# query: outcome of entry "Cn1cc[nH]c1=S"
inactive

# query: outcome of entry "COc1c2occc2cc2ccc(=O)oc12"
inactive

====

Assay: A CellTox Green Cytotoxicity Assay to monitor cytotoxicity in HEK293 cells - 0 hour (AID 1224869); note: nearly all actives have a fitted effect of over 50% in size
Details: CellTox Green fluorescence; series mostly up to 76.8 µM
Source text: National Center for Advancing Translational Sciences [NCATS] NIH Chemical Genomics Center [NCGC] U.S. Environmental Protection Agency [EPA] National Institutes of Environmental Health Sciences [NIEHS] National Toxicology Program [NTP] Cell-based models are critical for drug discovery. […] Viable cells produce no appreciable increases in fluorescence. Therefore, the fluorescence signal produced by the binding interaction with dead cell DNA is proportional to cytotoxicity. […]
Calls of active or inactive are those of the source. The call rests on the fitted dose curve; in most records, active means well fitted activation curve with a large enough effect in the repeat runs; inconclusive means weak or mixed curves; inactive means flat fitted curve, though single readings scatter.
measuredParameter: outcome

Recorded outcome, per entry:
1) CC(O)CO (stereo unspecified)
inactive
2) Cc1cn([C@H]2C[C@H](N=[N+]=[N-])[C@@H](CO)O2)c(=O)[nH]c1=O
inactive
3) CC(C)[C@@H]1CC[C@@H](C)C[C@H]1O
inactive
4) Nc1ccc(O)c(C(=O)O)c1
inactive
5) Cn1c(=O)c2[nH]cnc2n(C)c1=O
inactive

# query: outcome of entry "C1N2CN3CN1CN(C2)C3"
inactive

# query: outcome of entry "CC1(C)[C@@H]2CC[C@@]1(C)C(=O)C2"
inactive

====

Test: qHTS assay for small molecule agonists of the antioxidant response element (ARE) signaling pathway - cell viability counter screen (AID 743203); note: nearly all actives have a fitted effect of over 55% in size
Conditions: ARE-bla HepG2 viability, CellTiter-Glo luminescence, 16 h; series mostly up to 73.3 µM
Inconclusive results are not listed. Activity calls are given as the source filed them. Calls follow the shape of the full dose curve.
measuredParameter: outcome

1. CCCCOC(=O)CC(CC(=O)OCCCC)(OC(C)=O)C(=O)OCCCC
inactive
2. Cc1ccc(O)cc1
inactive
3. Nc1ccc(O)c(C(=O)O)c1
inactive
4. O=S(=O)(O)NC1CCCCC1
inactive
5. CC(=O)Nc1nnc(S(N)(=O)=O)s1
inactive

# query: outcome of entry "CCCN(CCC)S(=O)(=O)c1ccc(C(=O)O)cc1"
inactive

# query: outcome of entry "O=C(O)c1cccnc1"
inactive

====

Assay: qHTS assay to identify small molecule agonists of the estrogen related receptor (ERR) signaling pathway (AID 1224820)
Conditions: ERR reporter cell line, luciferase agonist mode; series mostly up to 46.1 µM
Inconclusive results are not listed. The source made the active and inactive calls. Calls come from the whole dose curve; as a rule, active = well fitted activation curve with a large enough effect in the repeat runs; inconclusive = weak or mixed curves; inactive = no such curve, though single readings can be large or run the other way.
Select the matching outcome among active, inactive

Worked examples, 5 compounds total:
1. Cc1ccccc1C(OCCN(C)C)c1ccccc1 (stereo unspecified)
inactive
2. CCCCC1C(=O)N(c2ccccc2)N(c2ccccc2)C1=O
inactive
3. NC(=O)c1cnccn1
inactive
4. O=C(C1CCCCC1)N1CC(=O)N2CCc3ccccc3C2C1 (stereo unspecified)
inactive
5. Oc1ccc(/C=C/c2cc(O)cc(O)c2)cc1
active

Okay, now this compound:
Field: outcome | Entry: "Cc1ccc(S(=O)(=O)NC(=O)NN2CCCCCC2)cc1"
inactive

====

Experiment: qHTS assay to identify small molecule phospholipidosis (PLD) inducers (AID 1259344)
Conditions: HepG2 phospholipidosis, LipidTOX Red imaging, 24 h; series mostly up to 38.3 µM
Inconclusive results are not listed. The source made the active and inactive calls. Calls come from the whole dose curve; as a rule, active = well fitted activation curve with a large enough effect; inconclusive = small, poorly fitted or top-dose-only effect; inactive = flat fitted curve, though single readings scatter.
measuredParameter: outcome

Recorded outcome, per entry:
1. CC(C)(Oc1ccc(C2CC2(Cl)Cl)cc1)C(=O)O (stereo unspecified)
inactive
2. COc1c2occc2cc2ccc(=O)oc12
inactive
3. C[C@]12C=CC(=O)C=C1CC[C@@H]1[C@@H]2[C@@H](O)C[C@@]2(C)[C@H]1CC[C@]2(O)C(=O)CO
inactive
4. O=C(O)CCCCCCCC(=O)O
inactive
5. Nc1ccc(O)c(C(=O)O)c1
inactive

Would you kindly look at the next entry?
# query: outcome of entry "Cn1c(=O)c2[nH]cnc2n(C)c1=O"
inactive

====

Assay: Caspase-3/7 induction in CHO-K1 cells by small molecules, qHTS assay (AID 1346980); note: nearly all actives have a fitted effect of over 15% in size
Conditions: CHO-K1 caspase-3/7 induction, Caspase-Glo luminescence, 17 h; series mostly up to 92.4 µM
Active and inactive are the calls of the source. Calls come from the whole dose curve; as a rule, active = well fitted activation curve with a large enough effect in the repeat runs; inconclusive = weak or mixed curves; inactive = flat fitted curve, though single readings scatter.
measuredParameter: outcome

1) O=c1cc[nH]c(=S)[nH]1
inactive
2) NC(=O)c1cnccn1
inactive
3) O=C(O)CCCCCCCC(=O)O
inactive
4) CCCN(CCC)S(=O)(=O)c1ccc(C(=O)O)cc1
inactive
5) O=NO
inactive

Would you kindly look at the next entry?
# query: outcome of entry "CNC[C@H](O)c1cccc(O)c1"
inactive

====

Assay: qHTS RealTime-Glo MT Cell Viability Assay in HepG2 cells - 0 hour (AID 1224889); note: nearly all actives have a fitted effect of over 50% in size
Conditions: RealTime-Glo luminescence; series mostly up to 76.8 µM
Results filed as inconclusive are left out. Active and inactive are the calls of the source. Calls come from the whole dose curve; as a rule, active = well fitted cell-killing curve with a large enough effect in the repeat runs; inconclusive = weak or mixed curves, or effect the other way; inactive = flat fitted curve, though single readings scatter.
measuredParameter: outcome

1. NC(N)=O
inactive
2. CCCCC(CC)COC(=O)/C=C/c1ccc(OC)cc1 (stereo unspecified)
inactive
3. O=C(O)c1[nH]n(-c2ccc(S(=O)(=O)O)cc2)c(=O)c1N=Nc1ccc(S(=O)(=O)O)cc1
inactive
4. O=C(O)CCCCCCCC(=O)O
inactive
5. Oc1ccc(/C=C/c2cc(O)cc(O)c2)cc1
inactive

Would you kindly look at the next entry?
# query: outcome of entry "CC(C)[C@@H]1CC[C@@H](C)C[C@H]1O"
inactive
